experiment: small-molecule microarray binders of probe aEGFR, primary screen, biochemical, biotinylated probe, 635/667 nm fluorescence (AID 1097); details: higher = more signal;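 note: probe is a biotinylated anti-EGFR antibody binding compounds printed on slides; score combines fluorescence near 667 nm and signal to noise of each spot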
assay metric: composite z-score
One number for each entry.

Recorded composite z-score, per entry:
compound	composite z-score
O=C1C2C=CC(C(O)C3CC=CCC3)N(Nc3ccc([N+](=O)[O-])cc3)C2C(=O)N1c1ccccc1 (configuration not stated)	0.298
CC(C)N1C(=O)[C@@]2(Cc3ccccc31)c1ccccc1C(=O)N(Cc1ccccc1)[C@H]2c1ccc(CO)cc1	-0.424
C=CCNC(=O)[C@H]1[C@@H]2C(=O)O[C@@H](c3ccccc3)[C@@H](c3ccccc3)N2[C@@H](c2ccc(OCCO)cc2)[C@]12C(=O)N(C(=O)OCCOC)c1ccc(C#CCC(C(=O)OC)C(=O)OC)cc12	0.315
CCCCC(=C=CC[C@H](O)c1ccccc1OCCO)CCO	-0.0664
COC(=O)C1=CC(c2ccc(CO)cc2)=CC(C2CC2)N(Cc2cc3c(cc2Br)OCO3)C=C1C(=O)OC (configuration not stated)	0.46

Batch lookup, composite z-score per entry.
1. CC(C)(C)OC(=O)CC[C@]1(C(N)=O)N=C(c2ccc(OCCCO)cc2)O[C@H]1c1ccccc1N=[N+]=[N-]
2. O=C1C2C=CC(C(O)C(c3ccccc3)c3ccccc3)N(Nc3ccccc3F)C2C(=O)N1c1ccccc1 (configuration not stated)

Data returned:
1: 0.141; 2: 0.162

###

test: FRG1 promoter luciferase signal modulators, primary screen, FRG1 inhibition for FSHD, cell-based, C2C12 myotubes, firefly/Renilla luciferase, luminescence (AID 1084); settings: higher = more signal, called active from +8 up or from −8 down
// map z-score onto a label; ranges class 0: < -1; class 1: ≥ -1 and < 0.2; class 2: ≥ 0.2

compound	label
C=CC[C@H](OC(=O)Nc1ccc(SC)cc1)c1ccc(O)c(F)c1	class 2
COC(=O)c1c2oc(c1C(=O)OC)C(=O)N[C@H](Cc1ccccc1)Cn1cc(nn1)C1(CCCCC1)NC(=O)N[C@H](CO)CC2	class 0
Cc1c(NC(=O)/C(C#N)=C/C=C/c2ccc([N+](=O)[O-])cc2)c(=O)n(-c2ccccc2)n1C	class 2
O=C1O[C@H](c2ccccc2)[C@H](c2ccccc2)N2[C@H]1[C@@H](C(=O)N1CCN(c3ncccn3)CC1)[C@]1(C(=O)Nc3ccc(C#CC4(O)CCCCCC4)cc31)[C@H]2c1ccc(O)cc1	class 1
CC(C)N1C(=O)[C@@]2(Cc3ccccc31)c1ccccc1C(=O)N(Cc1ccccc1C(F)(F)F)[C@H]2c1ccc(CO)cc1	class 1
CCOC(=O)C[C@H]1[C@H](OC(=O)c2ccc(-c3ccccc3)cc2)[C@@H](NC(=O)C2CCCCC2)c2cc(OCCCO)ccc2N1C(=O)Cc1ccc(OC)cc1	class 1
COc1ccc([Si](C)(C)[C@@H]2[C@@H](CC(=O)N(CCO)Cc3ccccc3)O[C@]3(C(=O)N(Cc4cccc(I)c4)c4ccccc43)[C@H]2C)cc1	class 1
[N-]=[N+]=NCc1ccccc1[C@H]1OC(c2ccc(OCCCO)cc2)=N[C@@]1(CCS(=O)(=O)c1ccccc1)C(=O)O	class 2

Data request: Using the reported z-score, which band applies to [N-]=[N+]=Nc1ccccc1C[C@@]1(C(=O)NCC(O)CO)N=C(c2ccc(OCCCO)cc2)O[C@@H]1c1ccccc1N=[N+]=[N-] (stereo partly specified) ?
Data returned: class 1
